- Assay system: Serine/threonine-protein phosphatase 5 (Homo sapiens) (UniProt P53041)
- Sequence (P53041 whole entry, looked up): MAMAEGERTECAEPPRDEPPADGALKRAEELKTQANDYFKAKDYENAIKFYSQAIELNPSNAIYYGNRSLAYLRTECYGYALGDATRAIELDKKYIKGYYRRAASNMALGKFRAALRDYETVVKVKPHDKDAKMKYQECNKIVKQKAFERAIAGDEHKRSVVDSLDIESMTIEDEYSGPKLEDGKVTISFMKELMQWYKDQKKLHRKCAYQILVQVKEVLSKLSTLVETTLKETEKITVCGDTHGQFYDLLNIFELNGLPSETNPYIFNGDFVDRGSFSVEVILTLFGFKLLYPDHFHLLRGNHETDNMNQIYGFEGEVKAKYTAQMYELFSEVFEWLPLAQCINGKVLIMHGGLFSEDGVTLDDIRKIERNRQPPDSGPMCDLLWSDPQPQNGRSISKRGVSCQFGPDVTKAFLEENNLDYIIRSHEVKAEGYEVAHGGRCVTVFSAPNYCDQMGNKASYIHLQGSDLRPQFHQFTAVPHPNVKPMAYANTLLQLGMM
- Measurement protocol: PP5 inhibition of phosphorylase dephosphorylation, late-stage follow-up, selectivity assay for PP1 inhibitor project, biochemical, radiolabel, glycogen phosphorylase substrate, set 2 (AID 652225)
- Experimental parameters: purified PP5c, 32P-glycogen phosphorylase dephosphorylation, scintillation
Activity calls are given as the source filed them.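 Rule for the calls: active = compounds inhibiting PP5 with an IC50 below 50 µM; inactive = IC50 of 50 µM or more.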
Hello, when you answer, please use one of the following outcomes: active, inactive

Compound: N#Cc1c(-c2ccc(Cl)cc2)cc(-c2cccs2)nc1SCC(=O)O
Category: inactive

Compound: COc1ccc(NC(=O)C2C3CCC(O3)C2C(=O)O)c(OC)c1 (stereo not drawn)
Category: active

Now turn to the next compound.
Problem: Test call for this compound, please: CCn1c2ccccc2c2cc(NC(=O)COC(=O)c3ccc(NC(=O)CC#N)cc3)ccc21
Result: inactive

Reference source for all entries: PubChem BioAssay AID652225
